These entries and their values trace back to ChEMBL document CHEMBL4004831.

- System: U-251
- ASSAY NAME: Growth inhibition of human U251 cells incubated for 48 hrs by sulforhodamine B assay
- Type: functional
- EXPERIMENTAL CONTEXT: U-251, 48 h
Assign GI50 to each entry below.
Give the quantity in nM, number only.

Fill blank: measured GI50 of the compound COc1ccccc1CNCCCN1C(=O)c2ccc3c4c(ccc(c24)C1=O)C(=O)N(CCCOCCCCOCCCN)C3=O is ____.
1240

Which GI50 value belongs to COc1ccccc1CNCCCN1C(=O)c2ccc3c4c(ccc(c24)C1=O)C(=O)N(CCCNCCCN)C3=O ?
108

Entry COc1ccccc1CNCCCN1C(=O)c2ccc3c4c(ccc(c24)C1=O)C(=O)N(CCCNCCCCNCCCN)C3=O : reported GI50 = ?
328

I have this compound here, COc1ccccc1CNCCCN1C(=O)c2ccc3c4c(ccc(c24)C1=O)C(=O)N(CCCNCCNCCCN)C3=O , and I need its recorded GI50.
1170

# get_value(readout='GI50', item= COc1ccccc1CNCCCN1C(=O)c2ccc3c4c(ccc(c24)C1=O)C(=O)N(CCCNCCCCN)C3=O )
173

Which GI50 is reported for this compound? CNCCCNCCCN1C(=O)c2ccc3c4c(ccc(c24)C1=O)C(=O)N(CCCNCc1ccccc1OC)C3=O
1610

Reported GI50 for COc1ccccc1CNCCCN1C(=O)c2ccc3c4c(ccc(c24)C1=O)C(=O)N(CCCCNCCCN)C3=O : what is it?
787

Suppose we examine the compound CNCCCNCCCCNCCCN1C(=O)c2ccc3c4c(ccc(c24)C1=O)C(=O)N(CCCNCc1ccccc1OC)C3=O ; what GI50 value has been reported?
3240

May I ask what GI50 has been recorded for COc1ccccc1CNCCCN1C(=O)c2ccc3c4c(ccc(c24)C1=O)C(=O)N(CCCN)C3=O ?
1590

----------
Exercise: state measured MIC for each of the molecules provided.
- Test system: Thermus aquaticus
- ASSAY NAME: Inhibition of Thermus aquaticus DNA polymerase-mediated amplification of fragment of pBR322 by PCR
Reply numerically in µM, unit not repeated.

Look at this molecule and give its reported MIC. COc1ccccc1CNCCCN1C(=O)c2ccc3c4c(ccc(c24)C1=O)C(=O)N(CCCOCCCCOCCCN)C3=O
1

Consider the molecule shown here: COc1ccccc1CNCCCN1C(=O)c2ccc3c4c(ccc(c24)C1=O)C(=O)N(CCCNCCCCNCCCN)C3=O What is its recorded MIC?
0.25

Form field: reported MIC of COc1ccccc1CNCCCN1C(=O)c2ccc3c4c(ccc(c24)C1=O)C(=O)N(CCCNCCCN)C3=O
0.25

Report MIC for COc1ccccc1CNCCCN1C(=O)c2ccc3c4c(ccc(c24)C1=O)C(=O)N(CCCNCCCCN)C3=O please.
0.5

----------
- Test system: T47D
- ASSAY NAME: Growth inhibition of human T47D cells incubated for 48 hrs by sulforhodamine B assay
- Format: functional
Would you mind telling me the reported GI50 of each entry?
The reply should be a number in nM, with the unit left off.

Item COc1ccccc1CNCCCN1C(=O)c2ccc3c4c(ccc(c24)C1=O)C(=O)N(CCCOCCCCOCCCN)C3=O with T47D - GI50?
976

Give the reported GI50 for COc1ccccc1CNCCCN1C(=O)c2ccc3c4c(ccc(c24)C1=O)C(=O)N(CCCCNCCCN)C3=O (system: T47D).
1300

Kindly state the measured GI50 obtained for COc1ccccc1CNCCCN1C(=O)c2ccc3c4c(ccc(c24)C1=O)C(=O)N(CCCNCCCCNCCCN)C3=O with T47D.
214
